Values from ChEMBL document CHEMBL3286203

Test system: OVCAR-4
Test details: Cytotoxicity against human OVCAR4 cells assessed as growth inhibition at 10 uM after 48 hrs by SRB assay
Assay type: functional, cell-based
Activity calls are given as the source filed them. The calls are words filed in the database; no cut-off is given here.
Outcome codes: active, inactive

1) CC1(C)OB(c2ccc(N(CCCl)CCBr)cc2)OC1(C)C; active
2) CC1(C)OB(c2ccc(N(CCCl)CCCl)cc2)OC1(C)C; active
3) CC1(C)OB(c2ccc(N(CCBr)CCOS(C)(=O)=O)cc2)OC1(C)C; active
4) CC1(C)OB(c2ccc(N(CCCl)CCOS(C)(=O)=O)cc2)OC1(C)C; active
5) CC1(C)OB(c2ccc(COC(=O)N(CCCl)CCCl)cc2)OC1(C)C; inactive
6) CC1(C)OB(c2ccc(N(CCBr)CCBr)cc2)OC1(C)C; active

###

Test system: HCT-15
Test details: Cytotoxicity against human HCT15 cells assessed as growth inhibition at 10 uM after 48 hrs by SRB assay
Assay type: functional, cell-based
Calls of active or inactive are those of the source. The calls are words filed in the database; no cut-off is given here.
Outcome codes: active, inactive

1. CC1(C)OB(c2ccc(N(CCCl)CCCl)cc2)OC1(C)C; active
2. CC1(C)OB(c2ccc(N(CCCl)CCOS(C)(=O)=O)cc2)OC1(C)C; active
3. CC1(C)OB(c2ccc(COC(=O)N(CCCl)CCCl)cc2)OC1(C)C; inactive
4. CC1(C)OB(c2ccc(N(CCBr)CCOS(C)(=O)=O)cc2)OC1(C)C; active
5. CC1(C)OB(c2ccc(N(CCBr)CCBr)cc2)OC1(C)C; active
6. CC1(C)OB(c2ccc(N(CCCl)CCBr)cc2)OC1(C)C; active

###

Test system: A498
Test details: Cytotoxicity against human A498 cells assessed as growth inhibition at 10 uM after 48 hrs by SRB assay
Format: functional, cell-based
Calls of active or inactive are those of the source. The calls are words filed in the database; no cut-off is given here.
Outcome codes: true (1) (active), false (0) (inactive)

1) CC1(C)OB(c2ccc(N(CCCl)CCOS(C)(=O)=O)cc2)OC1(C)C; true (1)
2) CC1(C)OB(c2ccc(N(CCBr)CCOS(C)(=O)=O)cc2)OC1(C)C; true (1)
3) CC1(C)OB(c2ccc(COC(=O)N(CCCl)CCCl)cc2)OC1(C)C; false (0)
4) CC1(C)OB(c2ccc(N(CCCl)CCBr)cc2)OC1(C)C; true (1)
5) CC1(C)OB(c2ccc(N(CCBr)CCBr)cc2)OC1(C)C; true (1)
6) CC1(C)OB(c2ccc(N(CCCl)CCCl)cc2)OC1(C)C; true (1)

###

Tested on: IGROV-1
Test details: Cytotoxicity against human IGROV1 cells assessed as growth inhibition at 10 uM after 48 hrs by SRB assay
Assay type: functional, cell-based
Active and inactive are the calls of the source. The calls are words filed in the database; no cut-off is given here.
Outcome codes: Yes = active, No = inactive

1. CC1(C)OB(c2ccc(N(CCBr)CCBr)cc2)OC1(C)C; Yes
2. CC1(C)OB(c2ccc(COC(=O)N(CCCl)CCCl)cc2)OC1(C)C; No
3. CC1(C)OB(c2ccc(N(CCBr)CCOS(C)(=O)=O)cc2)OC1(C)C; Yes
4. CC1(C)OB(c2ccc(N(CCCl)CCCl)cc2)OC1(C)C; Yes
5. CC1(C)OB(c2ccc(N(CCCl)CCBr)cc2)OC1(C)C; Yes
6. CC1(C)OB(c2ccc(N(CCCl)CCOS(C)(=O)=O)cc2)OC1(C)C; Yes

###

Tested on: SW-620
Test details: Cytotoxicity against human SW620 cells assessed as growth inhibition at 10 uM after 48 hrs by SRB assay
Format: functional, cell-based
The source made the active and inactive calls. The calls are words filed in the database; no cut-off is given here.
Outcome codes: yes (active), no (inactive)

1. CC1(C)OB(c2ccc(N(CCBr)CCBr)cc2)OC1(C)C; yes
2. CC1(C)OB(c2ccc(N(CCBr)CCOS(C)(=O)=O)cc2)OC1(C)C; yes
3. CC1(C)OB(c2ccc(N(CCCl)CCBr)cc2)OC1(C)C; yes
4. CC1(C)OB(c2ccc(COC(=O)N(CCCl)CCCl)cc2)OC1(C)C; no
5. CC1(C)OB(c2ccc(N(CCCl)CCCl)cc2)OC1(C)C; yes
6. CC1(C)OB(c2ccc(N(CCCl)CCOS(C)(=O)=O)cc2)OC1(C)C; yes

###

System: SF-268
Test details: Cytotoxicity against human SF268 cells assessed as growth inhibition at 10 uM after 48 hrs by SRB assay
Format: functional, cell-based
Active and inactive are the calls of the source. The calls are words filed in the database; no cut-off is given here.
Outcome codes: active, inactive

1) CC1(C)OB(c2ccc(N(CCCl)CCBr)cc2)OC1(C)C; active
2) CC1(C)OB(c2ccc(N(CCCl)CCOS(C)(=O)=O)cc2)OC1(C)C; active
3) CC1(C)OB(c2ccc(N(CCBr)CCOS(C)(=O)=O)cc2)OC1(C)C; active
4) CC1(C)OB(c2ccc(COC(=O)N(CCCl)CCCl)cc2)OC1(C)C; inactive
5) CC1(C)OB(c2ccc(N(CCCl)CCCl)cc2)OC1(C)C; active
6) CC1(C)OB(c2ccc(N(CCBr)CCBr)cc2)OC1(C)C; active

###

Test system: EKVX
Test details: Cytotoxicity against human EKVX cells assessed as growth inhibition at 10 uM after 48 hrs by SRB assay
Assay type: functional, cell-based
Calls of active or inactive are those of the source. The calls are words filed in the database; no cut-off is given here.
Outcome codes: yes (active), no (inactive)

1) CC1(C)OB(c2ccc(N(CCCl)CCCl)cc2)OC1(C)C; yes
2) CC1(C)OB(c2ccc(N(CCBr)CCOS(C)(=O)=O)cc2)OC1(C)C; yes
3) CC1(C)OB(c2ccc(N(CCBr)CCBr)cc2)OC1(C)C; yes
4) CC1(C)OB(c2ccc(N(CCCl)CCOS(C)(=O)=O)cc2)OC1(C)C; yes
5) CC1(C)OB(c2ccc(N(CCCl)CCBr)cc2)OC1(C)C; yes
6) CC1(C)OB(c2ccc(COC(=O)N(CCCl)CCCl)cc2)OC1(C)C; no
